Taken from patent US7446199B2.

Study target: KDR (Homo sapiens, UniProt P35968)
Sequence (P35968 20-1356): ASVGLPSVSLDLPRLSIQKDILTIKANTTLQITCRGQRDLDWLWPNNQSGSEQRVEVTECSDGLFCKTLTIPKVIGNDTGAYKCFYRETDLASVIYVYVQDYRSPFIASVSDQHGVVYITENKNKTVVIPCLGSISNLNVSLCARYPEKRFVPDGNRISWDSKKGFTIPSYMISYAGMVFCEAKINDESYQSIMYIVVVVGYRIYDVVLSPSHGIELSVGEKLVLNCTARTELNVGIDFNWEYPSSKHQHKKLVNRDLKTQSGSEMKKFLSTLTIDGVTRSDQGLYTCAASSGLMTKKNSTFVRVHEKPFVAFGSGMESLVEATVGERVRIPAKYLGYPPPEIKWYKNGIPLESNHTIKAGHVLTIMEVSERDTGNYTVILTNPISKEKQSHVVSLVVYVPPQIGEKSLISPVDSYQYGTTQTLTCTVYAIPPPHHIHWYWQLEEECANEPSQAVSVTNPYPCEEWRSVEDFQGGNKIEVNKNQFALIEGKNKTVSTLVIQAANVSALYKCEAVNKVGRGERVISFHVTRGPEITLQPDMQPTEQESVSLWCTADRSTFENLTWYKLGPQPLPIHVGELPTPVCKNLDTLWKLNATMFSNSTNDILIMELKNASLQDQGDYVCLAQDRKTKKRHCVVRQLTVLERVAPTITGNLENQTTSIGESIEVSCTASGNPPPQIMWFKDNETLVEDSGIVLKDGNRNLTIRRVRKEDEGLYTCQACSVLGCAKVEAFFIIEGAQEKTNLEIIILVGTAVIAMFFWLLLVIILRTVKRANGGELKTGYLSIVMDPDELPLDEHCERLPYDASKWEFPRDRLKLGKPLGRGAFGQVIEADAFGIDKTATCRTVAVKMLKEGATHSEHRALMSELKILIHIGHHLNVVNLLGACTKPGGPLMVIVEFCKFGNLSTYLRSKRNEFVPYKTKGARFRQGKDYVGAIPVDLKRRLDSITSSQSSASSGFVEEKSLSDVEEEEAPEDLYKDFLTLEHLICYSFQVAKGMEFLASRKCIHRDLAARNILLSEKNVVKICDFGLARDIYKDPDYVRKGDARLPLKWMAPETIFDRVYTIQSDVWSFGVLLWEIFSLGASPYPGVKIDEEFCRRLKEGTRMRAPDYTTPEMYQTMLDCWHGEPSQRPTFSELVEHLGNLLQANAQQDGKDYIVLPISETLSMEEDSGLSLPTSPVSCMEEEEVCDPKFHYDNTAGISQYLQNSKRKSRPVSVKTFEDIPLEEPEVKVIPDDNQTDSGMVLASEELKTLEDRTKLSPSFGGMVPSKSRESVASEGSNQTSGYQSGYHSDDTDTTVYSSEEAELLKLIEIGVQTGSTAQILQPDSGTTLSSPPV
Measured Ki, listed per entry.

Examples with their reported Ki follow.
                                   compound  readout_kind        data_value
0  Fc1ccc(-c2cnoc2-c2c[nH]c3ncccc23)c(F)c1F [Compound 40]            Ki    200 to 1000 nM
1  N#Cc1ccc(-c2cnc3[nH]cc(-c4oncc4-c4cccc(F)c4F)c3c2)cc1 [Compound 89]            Ki          < 200 nM
2  Fc1ccc(F)c(-c2cnoc2-c2c[nH]c3ncccc23)c1F [Compound 41]            Ki  1000 to 12500 nM
3  Fc1cccc(-c2cnoc2-c2c[nH]c3ncc(-c4ccncc4)cc23)c1F [Compound 57]            Ki    200 to 1000 nM
4  N#CCC(=O)N1CCC(c2cnc3[nH]cc(-c4oncc4-c4cccc(F)c4F)c3c2)CC1 [Compound 64]            Ki  1000 to 12500 nM
5  Fc1cccc(Cc2cnoc2-c2c[nH]c3ncccc23)c1F [Compound 36]            Ki  1000 to 12500 nM
6  COc1cncc(-c2cnc3[nH]cc(-c4oncc4-c4cccc(F)c4F)c3c2)c1 [Compound 96]            Ki          < 200 nM
7  COc1cccc(-c2cnoc2-c2c[nH]c3ncccc23)c1OC [Compound 51]            Ki  1000 to 12500 nM

Field: next compound
Query :: Endpoint output: Ki of Fc1cc(F)c(F)c(-c2cnoc2-c2c[nH]c3ncccc23)c1 [Compound 39] . Value?
Result :: 1000 to 12500 nM

----------
Study target: c-KIT (Homo sapiens, UniProt P10721)
Sequence (P10721 26-976): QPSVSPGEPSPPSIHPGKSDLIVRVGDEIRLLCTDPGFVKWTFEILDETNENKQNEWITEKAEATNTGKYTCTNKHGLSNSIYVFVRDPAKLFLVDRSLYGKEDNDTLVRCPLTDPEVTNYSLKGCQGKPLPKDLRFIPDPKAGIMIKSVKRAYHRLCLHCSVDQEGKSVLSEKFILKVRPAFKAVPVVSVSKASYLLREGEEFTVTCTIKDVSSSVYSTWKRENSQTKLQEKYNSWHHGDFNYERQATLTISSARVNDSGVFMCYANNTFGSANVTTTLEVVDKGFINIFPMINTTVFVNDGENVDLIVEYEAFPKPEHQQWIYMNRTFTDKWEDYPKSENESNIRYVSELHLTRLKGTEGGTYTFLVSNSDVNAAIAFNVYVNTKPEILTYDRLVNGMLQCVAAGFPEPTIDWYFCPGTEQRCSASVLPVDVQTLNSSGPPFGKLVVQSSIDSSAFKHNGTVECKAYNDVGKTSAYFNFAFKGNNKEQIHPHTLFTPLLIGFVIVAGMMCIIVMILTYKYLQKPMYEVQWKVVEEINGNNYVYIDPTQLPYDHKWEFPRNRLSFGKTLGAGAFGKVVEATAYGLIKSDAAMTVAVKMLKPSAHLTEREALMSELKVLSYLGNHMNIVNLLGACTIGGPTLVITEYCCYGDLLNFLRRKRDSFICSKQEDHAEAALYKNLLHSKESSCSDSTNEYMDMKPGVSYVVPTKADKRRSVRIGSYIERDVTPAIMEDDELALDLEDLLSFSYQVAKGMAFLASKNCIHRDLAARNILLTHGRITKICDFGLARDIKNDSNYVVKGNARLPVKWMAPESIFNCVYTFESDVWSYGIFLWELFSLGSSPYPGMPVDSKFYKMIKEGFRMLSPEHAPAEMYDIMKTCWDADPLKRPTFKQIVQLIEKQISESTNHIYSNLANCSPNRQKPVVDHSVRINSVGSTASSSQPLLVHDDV
Catalogue of Ki values

Examples with their reported Ki follow.
In [3]: df
Out[3]:
                                   molecule                          study_target   data_value
0  CC(=O)Nc1ccc(-c2cnc3[nH]cc(-c4oncc4-c4cccc(F)c4F)c3c2)cc1  c-KIT (Homo sapiens, UniProt P10721)     < 0.2 µM
1  Oc1cccc(-c2cnc3[nH]cc(-c4oncc4-c4cccc(F)c4F)c3c2)c1  c-KIT (Homo sapiens, UniProt P10721)     < 0.2 µM
2  CN(C)Cc1ccc(-c2cnc3[nH]cc(-c4oncc4-c4cccc(F)c4F)c3c2)nc1  c-KIT (Homo sapiens, UniProt P10721)     < 0.2 µM
3  CN1CCN(c2ccc(-c3cnc4[nH]cc(-c5oncc5-c5cccc(F)c5F)c4c3)cc2)CC1 [Compound 70, methanesulfonate]  c-KIT (Homo sapiens, UniProt P10721)     < 0.2 µM
4  CS(=O)(=O)NC1CC=C(c2cnc3[nH]cc(-c4oncc4-c4cccc(F)c4F)c3c2)CC1 (centres unmarked)  c-KIT (Homo sapiens, UniProt P10721)     < 0.2 µM
5  Fc1cccc(-n2cnnc2-c2c[nH]c3ncc(-c4ccc(N5CCOCC5)nc4)cc23)c1F  c-KIT (Homo sapiens, UniProt P10721)  0.2 to 1 µM
6  NC(=O)c1ccc(-c2cnc3[nH]cc(-c4oncc4-c4cccc(F)c4F)c3c2)cc1  c-KIT (Homo sapiens, UniProt P10721)     < 0.2 µM
7  Nc1cccc(-c2cnc3[nH]cc(-c4oncc4-c4cccc(F)c4F)c3c2)c1  c-KIT (Homo sapiens, UniProt P10721)     < 0.2 µM
8  CN1CCC(c2cnc3[nH]cc(-c4oncc4-c4cccc(F)c4F)c3c2)CC1  c-KIT (Homo sapiens, UniProt P10721)  0.2 to 1 µM
9  CCN1CCC(c2cnc3[nH]cc(-c4oncc4-c4cccc(F)c4F)c3c2)CC1  c-KIT (Homo sapiens, UniProt P10721)     < 0.2 µM

Query :: Fill blank: measured Ki of the molecule CN(C)c1ccc(-c2cnc3[nH]cc(-c4nncn4-c4cccc(F)c4F)c3c2)cc1[N+](=O)[O-] is ____.
Result :: < 0.2 µM

Query :: Okay, and OCC1CCN(c2ccc(-c3cnc4[nH]cc(-c5nncn5-c5cccc(F)c5F)c4c3)cn2)CC1 ?
Result :: 0.2 to 1 µM

Query :: One more molecule: Cc1cnc2[nH]cc(-c3oncc3-c3cccc(F)c3F)c2c1
Result :: 0.2 to 1 µM

Query :: And then Fc1cccc(-n2cnnc2-c2c[nH]c3ncc(-c4cccnc4)cc23)c1F , what is it?
Result :: 0.2 to 1 µM

Query :: Quick one: O=c1ccc(-c2cnc3[nH]cc(-c4oncc4-c4cccc(F)c4F)c3c2)c[nH]1
Result :: < 0.2 µM

Query :: Similarly, Fc1cccc(-c2cnoc2-c2c[nH]c3ncc(-c4cccnc4)cc23)c1F ?
Result :: < 0.2 µM

----------
Study target: SYK (Homo sapiens, UniProt P43405)
pKi: −log10 of the molar value.
Readout kind: pKi

See these solved cases before continuing.
>>> df
                                   molecule    data_value
0  Nc1cccc(-c2cnc3[nH]cc(-c4oncc4-c4cccc(F)c4F)c3c2)c1  6.00 to 6.70
1  Cc1noc(-c2c[nH]c3ncccc23)c1-c1cccc(F)c1F  4.90 to 6.00
2  C[N+]1(C)CCN(c2ccc(-c3cnc4[nH]cc(-c5oncc5-c5cccc(F)c5F)c4c3)cc2)CC1  6.00 to 6.70
3  CN(C)c1ccc(-c2cnc3[nH]cc(-c4nncn4-c4cccc(F)c4F)c3c2)cc1  4.90 to 6.00
4  O=c1ccc(-c2cnc3[nH]cc(-c4oncc4-c4cccc(F)c4F)c3c2)c[nH]1  6.00 to 6.70
5  Fc1cccc(-c2cnoc2-c2c[nH]c3ncc(Cl)cc23)c1F  4.90 to 6.00

Kindly consider the entry below.
Query :: What does the record list as pKi for CN1CCN(c2ccc(-c3cnc4[nH]cc(-c5oncc5-c5cccc(F)c5F)c4c3)cc2)CC1 [Compound 70, methanesulfonate] ?
Result :: 6.00 to 6.70

----------
pKi for assorted molecules
Study target: FLT-3 (Homo sapiens)
Construct: 0.02% BSA and 3 nM FLT-3
Sequence (P36888 27-993): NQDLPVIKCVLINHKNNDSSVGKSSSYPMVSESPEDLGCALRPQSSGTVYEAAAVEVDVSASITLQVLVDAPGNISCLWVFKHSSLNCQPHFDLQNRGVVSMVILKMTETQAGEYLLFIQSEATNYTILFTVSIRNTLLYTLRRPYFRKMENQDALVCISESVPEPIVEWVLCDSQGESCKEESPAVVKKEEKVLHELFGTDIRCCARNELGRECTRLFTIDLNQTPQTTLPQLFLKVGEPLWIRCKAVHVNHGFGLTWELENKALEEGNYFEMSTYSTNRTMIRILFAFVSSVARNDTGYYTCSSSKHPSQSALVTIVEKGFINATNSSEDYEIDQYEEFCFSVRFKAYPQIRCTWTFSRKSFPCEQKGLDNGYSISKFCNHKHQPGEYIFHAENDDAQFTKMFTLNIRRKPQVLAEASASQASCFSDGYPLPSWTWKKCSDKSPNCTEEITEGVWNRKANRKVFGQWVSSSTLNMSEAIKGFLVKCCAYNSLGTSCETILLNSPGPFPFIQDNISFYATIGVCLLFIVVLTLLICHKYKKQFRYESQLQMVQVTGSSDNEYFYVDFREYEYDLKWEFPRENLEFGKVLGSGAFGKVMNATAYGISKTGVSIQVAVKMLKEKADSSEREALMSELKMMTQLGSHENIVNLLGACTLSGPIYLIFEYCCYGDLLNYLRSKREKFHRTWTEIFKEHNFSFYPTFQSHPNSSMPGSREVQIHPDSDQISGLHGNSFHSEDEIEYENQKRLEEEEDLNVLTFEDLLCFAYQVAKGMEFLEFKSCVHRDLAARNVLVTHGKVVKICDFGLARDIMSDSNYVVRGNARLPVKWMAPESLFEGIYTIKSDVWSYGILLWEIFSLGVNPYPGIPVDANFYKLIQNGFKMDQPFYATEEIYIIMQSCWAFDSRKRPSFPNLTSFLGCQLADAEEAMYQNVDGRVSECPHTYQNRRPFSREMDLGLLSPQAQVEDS
Method summary: Inhibition of FLT-3, radiometric filter-binding assay
Format: biochemical
Reported conditions: 90 μM ATP, 0.5 mg/mL pE4Y, room temperature
pKi: −log10 of the molar value.

Previously resolved entries follow.
>>> df
                                   molecule    data_value
0  Oc1cnc2[nH]cc(-c3oncc3-c3cccc(F)c3F)c2c1  6.00 to 6.70
1  Fc1cccc(-c2cnoc2-c2c[nH]c3ncc(-c4ncccn4)cc23)c1F  6.00 to 6.70
2  NC1CC=C(c2cnc3[nH]cc(-c4oncc4-c4cccc(F)c4F)c3c2)CC1 (centres unmarked)        > 6.70
3  Fc1ccc(F)c(-c2cnoc2-c2c[nH]c3ncccc23)c1F  4.90 to 6.00
4  CN1CCN(c2ccc(-c3cnc4[nH]cc(-c5oncc5-c5cccc(F)c5F)c4c3)cc2)CC1 [Compound 70, methanesulfonate]        > 6.70
5  CN(C)Cc1cc(Cl)nc(-c2cnc3[nH]cc(-c4oncc4-c4cccc(F)c4F)c3c2)c1  6.00 to 6.70
6  OB(O)c1cnc2[nH]cc(-c3oncc3-c3cccc(F)c3F)c2c1  6.00 to 6.70

Here's the next entry for you.
Query :: Param readout = pKi; param system = FLT-3 (Homo sapiens); param query = Fc1cccc(-c2cnoc2-c2c[nH]c3ncc(C4CCNCC4)cc23)c1F ; response: value
Result :: 6.00 to 6.70
